Target: E2DH Type II (HSD Type II) in MDA-MB231 breast cancer cells (Homo sapiens)
Construct: endogenous in cells; host or cells: MDA-MB-231 breast cancer cells
Sequence (P37059 1-387): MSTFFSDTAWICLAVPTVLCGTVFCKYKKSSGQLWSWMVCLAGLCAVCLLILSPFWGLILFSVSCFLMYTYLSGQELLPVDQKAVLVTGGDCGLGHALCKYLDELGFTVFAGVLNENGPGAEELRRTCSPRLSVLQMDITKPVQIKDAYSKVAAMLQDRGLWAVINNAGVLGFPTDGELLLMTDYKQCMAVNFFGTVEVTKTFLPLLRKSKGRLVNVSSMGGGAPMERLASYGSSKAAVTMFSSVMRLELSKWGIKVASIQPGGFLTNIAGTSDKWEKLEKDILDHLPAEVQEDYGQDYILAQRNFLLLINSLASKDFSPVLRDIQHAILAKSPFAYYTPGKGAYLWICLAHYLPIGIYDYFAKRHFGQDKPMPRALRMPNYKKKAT
Assay: Conversion of oestradiol to oestrone in intact MDA-MB231 cell monolayers (Protocol 7)
Format: cell-based
Conditions: MDA-MB-231, measured at 10 μM, read-out: % Inhibition E2 → E1 ± SD (HSD Type II)

{"columns": ["COMPOUND", "SUBJECT OF TEST", "inhibition at 10 µM, %"],
 "data": [
  ["COc1cc2c(cc1O)CCC1C2CC[C@]2(C)C(=O)NC(=O)CC12 (stereo partly shown)", "E2DH Type II (HSD Type II) in MDA-MB231 breast cancer cells (Homo sapiens)", -20.2],
  ["CCCCCCN1C(=O)CC2C3CCc4cc(O)ccc4C3CC[C@]2(C)C1=O (stereo partly shown)", "E2DH Type II (HSD Type II) in MDA-MB231 breast cancer cells (Homo sapiens)", 8.32],
  ["C[C@]12CCC3c4ccc(O)cc4CCC3C1CC(=O)N(CCCCBr)C2=O (stereo partly shown)", "E2DH Type II (HSD Type II) in MDA-MB231 breast cancer cells (Homo sapiens)", 10.7],
  ["C[C@]12CCC3c4ccc(O)cc4CCC3C1CC(=O)NC2=O (stereo partly shown)", "E2DH Type II (HSD Type II) in MDA-MB231 breast cancer cells (Homo sapiens)", -15.4]
]}

====

biological target: STS (Homo sapiens); construct: can be assessed using either intact MCF-7 breast cancer cells or placental microsomes; test: biochemical; conditions: STS IC50 (nM), inhibition of E1S→E1; Table 1
Sequence (P08842 22-583): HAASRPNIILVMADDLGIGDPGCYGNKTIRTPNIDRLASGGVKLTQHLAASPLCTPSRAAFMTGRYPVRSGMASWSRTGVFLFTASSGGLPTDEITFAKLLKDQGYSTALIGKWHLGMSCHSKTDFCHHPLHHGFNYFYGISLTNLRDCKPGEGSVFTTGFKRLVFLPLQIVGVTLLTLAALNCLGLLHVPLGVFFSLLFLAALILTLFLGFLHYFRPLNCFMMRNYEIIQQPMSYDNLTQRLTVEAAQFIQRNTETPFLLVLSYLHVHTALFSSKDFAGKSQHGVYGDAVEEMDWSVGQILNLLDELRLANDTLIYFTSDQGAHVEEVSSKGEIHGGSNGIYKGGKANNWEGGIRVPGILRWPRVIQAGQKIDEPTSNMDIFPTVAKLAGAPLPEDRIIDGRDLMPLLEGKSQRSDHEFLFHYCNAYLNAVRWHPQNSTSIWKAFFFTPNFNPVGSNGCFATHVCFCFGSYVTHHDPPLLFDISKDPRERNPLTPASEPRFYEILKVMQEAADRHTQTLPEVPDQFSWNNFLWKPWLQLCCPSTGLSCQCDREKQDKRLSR
# Lookup of reported IC50 keyed by entry

{"columns": ["MOLECULE", "UNIT NAME", "IC50"],
 "data": [
  ["COc1cc2c(cc1OS(N)(=O)=O)CCC1C2CC[C@]2(C)C(=O)NC(=O)CC12 (some centres unmarked)", "nM", 309],
  ["C=CCN1C(=O)CC2C3CCc4cc(OS(N)(=O)=O)ccc4C3CC[C@]2(C)C1=O (some centres unmarked)", "nM", 75],
  ["CCCN1C(=O)CC2C3CCc4cc(OS(N)(=O)=O)ccc4C3CC[C@]2(C)C1=O (some centres unmarked)", "nM", 41],
  ["CC(C)(C)c1ccc(CN2C(=O)CC3C4CCc5cc(OS(N)(=O)=O)ccc5C4CC[C@]3(C)C2=O)cc1 (some centres unmarked)", "nM", 23],
  ["C[C@]12CCC3c4ccc(OS(N)(=O)=O)cc4CCC3C1CC(=O)N(Cc1ccccc1)C2=O (some centres unmarked)", "nM", 280]
]}
